Recorded values, source PubChem BioAssay (NCI).

- Tested on: A498 renal
- protocol_description: NCI tumour cell line growth inhibition, 48 h
Parameter: TGI. Scope: all listed entries.
quantity: TGI

| molecule | tested_target | result |
| --- | --- | --- |
| Clc1ccc2nc3n[nH]c(Cl)c3nc2c1 | A498 renal | > 100 µM |
| Cc1cc(C(=O)Nc2cc(Oc3ccc4nc(NC(=O)C5CC5)cn4n3)ccc2C)n(C)n1 | A498 renal | > 10 µM |
| CC(CN1CC(=O)NC(=O)C1)N1CC(=O)NC(=O)C1 (configuration not stated) | A498 renal | > 750 µM |
| NC(=S)Nc1ccc2c(c1)oc1ccccc12 | A498 renal | > 100 µM |
| Cn1c(=O)c2c(nc3n2CCC(=O)N3CCCCl)n(C)c1=O | A498 renal | > 100 µM |
| O=C1NC(O)c2ccccc2O1 (configuration not stated) | A498 renal | > 100 µM |
| Nc1ncn(C2OC(COP(=O)(O)O)C(O)C2O)c(=O)n1 (configuration not stated) | A498 renal | > 100 µM |
| C#CCN(N=O)C(=O)NCCCCC(NC(=O)OCc1ccccc1)C(=O)OCc1ccccc1 (configuration not stated) | A498 renal | > 100 µM |
| O=C1Nc2ccccc2/C1=C\c1cccc(/C=C2/C(=O)Nc3ccccc32)n1 | A498 renal | 2.9 µM |
| C/C(=N/NC(=S)N(C)C)c1ccccc1O | A498 renal | 97.9 µM |
| N#CCCN(CCC#N)c1ccc(/C=C2\SC(=S)NC2=O)cc1 | A498 renal | > 100 µM |
| CN(C)C(=S)/N=c1\ssc(=S)n1Cc1cccs1 | A498 renal | > 100 µM |
